Where do these numbers come from? They come from ChEMBL document CHEMBL4024727.

# protocol.description: Growth inhibition of human HeLa cells by MTT assay
# Assay type: cell-based
# condition.info: HeLa cells
assay.endpoint: GI50 (µg/mL)
Numeric only. Scale: µg/mL

Briefly, GI50 measured for `Cc1nc(-c2ccccc2)oc1-c1csc(-c2ccccc2)n1` : 123

Quick note, GI50 for `Cc1nc(-c2ccc(F)cc2)oc1-c1csc(Cc2cccc(Cl)c2)n1` landed at 168

The reported GI50 of the molecule `Cc1nc(-c2ccccc2)oc1-c1csc(Cc2ccc(Cl)cc2)n1` was 124

====

# Tested on: PANC-1
# protocol.description: Growth inhibition of human PANC1 cells by MTT assay
# Format: cell-based
# condition.info: panc-1
Consider the following compounds; for each one, report its GI90.

Just so you know, measured GI90 for `Cc1nc(-c2ccc(F)cc2)oc1-c1csc(Cc2ccccc2)n1` came out at > 250 µg/mL

The compound listed as `CO[C@H]1/C=C/O[C@@]2(C)Oc3c(C)c(O)c4c(O)c(c(/C=N/N5CCN(C)CC5)c(O)c4c3C2=O)NC(=O)/C(C)=C\C=C\[C@H](C)[C@H](O)[C@@H](C)[C@@H](O)[C@@H](C)[C@H](OC(C)=O)[C@@H]1C` has a reported GI90 of > 100 µg/mL

GI90 for `Cc1nc(-c2ccccc2)oc1-c1csc(Cc2cccc(Cl)c2)n1` is > 250 µg/mL

Per the records, this compound ( `Cc1nc(-c2ccccc2)oc1-c1csc(-c2ccccc2)n1` ) has GI90 equal to > 250 µg/mL

// field: GI90; key: `Cc1nc(-c2ccccc2)oc1-c1csc(Cc2ccc(Cl)cc2)n1` ; value = > 250 µg/mL

Entry `CC(=O)O[C@H]1C(=O)[C@@]2(C)[C@H]([C@H](OC(=O)c3ccccc3)[C@]3(O)C[C@H](OC(=O)[C@H](O)[C@@H](NC(=O)c4ccccc4)c4ccccc4)C(C)=C1C3(C)C)[C@]1(OC(C)=O)CO[C@@H]1C[C@@H]2O` , GI90 reported as 5.715 µg/mL

// sample `Cc1nc(-c2ccc(F)cc2)oc1-c1csc(Cc2ccc(F)cc2)n1` , its GI90 was > 250 µg/mL

Record `Cc1nc(-c2ccc(F)cc2)oc1-c1csc(Cc2cccc(Cl)c2)n1` , field GI90: > 250 µg/mL

====

Provide the reported inhibition of growth at 10 µg/mL of each item.
# System: Bacillus subtilis
# protocol.description: Growth inhibition of Bacillus subtilis NCIM 2162 at 10 ug/ml measured after 12 hrs relative to control
# Format: functional
# condition.info: NCIM 2162, 12 h, read-out: GI
Write it as a number; the unit % goes unstated.

GET /value?item= `Cc1nc(-c2ccccc2)oc1-c1csc(-c2ccc(F)cc2)n1` &field=inhibition of growth at 10 µg/mL returns 49.4

So for `Cc1nc(-c2ccc(F)cc2)oc1-c1csc(Cc2cccc(Cl)c2)n1` , the logged inhibition of growth at 10 µg/mL turned out to be 85.4

Reported inhibition of growth at 10 µg/mL ( `Cc1nc(-c2ccccc2)oc1-c1csc(-c2ccc(Br)cc2)n1` ) = 74.3

Reported inhibition of growth at 10 µg/mL ( `Cc1nc(-c2ccccc2)oc1-c1csc(-c2cccc(Cl)c2)n1` ) = 57.3

Query `Cc1nc(-c2ccccc2)oc1-c1csc(Cc2ccc(Cl)cc2)n1` yields inhibition of growth at 10 µg/mL of 85.2

The reported inhibition of growth at 10 µg/mL of the compound `Cc1nc(-c2ccc(F)cc2)oc1-c1csc(-c2ccc(F)c(Cl)c2)n1` was 55.6

Documented inhibition of growth at 10 µg/mL of `CC1(C)S[C@@H]2[C@H](NC(=O)[C@H](N)c3ccccc3)C(=O)N2[C@H]1C(=O)O` : 94.5

Form: compound = `Cc1nc(-c2ccccc2)oc1-c1csc(-c2ccc(Cl)cc2)n1` ; inhibition of growth at 10 µg/mL = 29.2

Field inhibition of growth at 10 µg/mL (entry `Cc1nc(-c2ccc(F)cc2)oc1-c1csc(-c2ccc(Br)cc2)n1` ) reads 51.8

// sample `Cc1nc(-c2ccccc2)oc1-c1csc(-c2ccccc2)n1` , its inhibition of growth at 10 µg/mL was 93.2

Item: `Cc1ccc(-c2nc(-c3oc(-c4ccccc4)nc3C)cs2)cc1` | inhibition of growth at 10 µg/mL: 15.9

Record `Cc1nc(-c2ccc(F)cc2)oc1-c1csc(Cc2ccc(Cl)cc2)n1` , field inhibition of growth at 10 µg/mL: 13.9

Record `Cc1ccc(-c2nc(-c3oc(-c4ccc(F)cc4)nc3C)cs2)cc1` . Reported inhibition of growth at 10 µg/mL: 10.7

Per the record, `Cc1nc(-c2ccc(F)cc2)oc1-c1csc(Cc2ccc(F)cc2)n1` has inhibition of growth at 10 µg/mL of 88.2

Item: `Cc1nc(-c2ccc(F)cc2)oc1-c1csc(-c2cccc(Cl)c2)n1` | inhibition of growth at 10 µg/mL: 40.6

inhibition of growth at 10 µg/mL reported for this compound `Cc1nc(-c2ccc(F)cc2)oc1-c1csc(-c2ccc(Cl)cc2)n1` : 12.9

Value of inhibition of growth at 10 µg/mL reported for the compound `Cc1nc(-c2ccc(F)cc2)oc1-c1csc(Cc2ccccc2)n1` is 95.8

Lab book: inhibition of growth at 10 µg/mL of `Cc1nc(-c2ccc(F)cc2)oc1-c1csc(-c2ccccc2)n1` noted as 47.8

Reported inhibition of growth at 10 µg/mL ( `Cc1nc(-c2ccccc2)oc1-c1csc(-c2ccc(F)c(Cl)c2)n1` ) = 80.8

Looking up `Cc1nc(-c2ccccc2)oc1-c1csc(Cc2cccc(Cl)c2)n1` , I found its inhibition of growth at 10 µg/mL recorded as 86.8

For `Cc1nc(-c2ccc(F)cc2)oc1-c1csc(-c2ccc(F)cc2)n1` the compound record lists inhibition of growth at 10 µg/mL as 55.3
